# target.under.test: Human C3 (human, UniProt P01024 23-1663)
# Sequence (P01024 23-1663 limits assumed): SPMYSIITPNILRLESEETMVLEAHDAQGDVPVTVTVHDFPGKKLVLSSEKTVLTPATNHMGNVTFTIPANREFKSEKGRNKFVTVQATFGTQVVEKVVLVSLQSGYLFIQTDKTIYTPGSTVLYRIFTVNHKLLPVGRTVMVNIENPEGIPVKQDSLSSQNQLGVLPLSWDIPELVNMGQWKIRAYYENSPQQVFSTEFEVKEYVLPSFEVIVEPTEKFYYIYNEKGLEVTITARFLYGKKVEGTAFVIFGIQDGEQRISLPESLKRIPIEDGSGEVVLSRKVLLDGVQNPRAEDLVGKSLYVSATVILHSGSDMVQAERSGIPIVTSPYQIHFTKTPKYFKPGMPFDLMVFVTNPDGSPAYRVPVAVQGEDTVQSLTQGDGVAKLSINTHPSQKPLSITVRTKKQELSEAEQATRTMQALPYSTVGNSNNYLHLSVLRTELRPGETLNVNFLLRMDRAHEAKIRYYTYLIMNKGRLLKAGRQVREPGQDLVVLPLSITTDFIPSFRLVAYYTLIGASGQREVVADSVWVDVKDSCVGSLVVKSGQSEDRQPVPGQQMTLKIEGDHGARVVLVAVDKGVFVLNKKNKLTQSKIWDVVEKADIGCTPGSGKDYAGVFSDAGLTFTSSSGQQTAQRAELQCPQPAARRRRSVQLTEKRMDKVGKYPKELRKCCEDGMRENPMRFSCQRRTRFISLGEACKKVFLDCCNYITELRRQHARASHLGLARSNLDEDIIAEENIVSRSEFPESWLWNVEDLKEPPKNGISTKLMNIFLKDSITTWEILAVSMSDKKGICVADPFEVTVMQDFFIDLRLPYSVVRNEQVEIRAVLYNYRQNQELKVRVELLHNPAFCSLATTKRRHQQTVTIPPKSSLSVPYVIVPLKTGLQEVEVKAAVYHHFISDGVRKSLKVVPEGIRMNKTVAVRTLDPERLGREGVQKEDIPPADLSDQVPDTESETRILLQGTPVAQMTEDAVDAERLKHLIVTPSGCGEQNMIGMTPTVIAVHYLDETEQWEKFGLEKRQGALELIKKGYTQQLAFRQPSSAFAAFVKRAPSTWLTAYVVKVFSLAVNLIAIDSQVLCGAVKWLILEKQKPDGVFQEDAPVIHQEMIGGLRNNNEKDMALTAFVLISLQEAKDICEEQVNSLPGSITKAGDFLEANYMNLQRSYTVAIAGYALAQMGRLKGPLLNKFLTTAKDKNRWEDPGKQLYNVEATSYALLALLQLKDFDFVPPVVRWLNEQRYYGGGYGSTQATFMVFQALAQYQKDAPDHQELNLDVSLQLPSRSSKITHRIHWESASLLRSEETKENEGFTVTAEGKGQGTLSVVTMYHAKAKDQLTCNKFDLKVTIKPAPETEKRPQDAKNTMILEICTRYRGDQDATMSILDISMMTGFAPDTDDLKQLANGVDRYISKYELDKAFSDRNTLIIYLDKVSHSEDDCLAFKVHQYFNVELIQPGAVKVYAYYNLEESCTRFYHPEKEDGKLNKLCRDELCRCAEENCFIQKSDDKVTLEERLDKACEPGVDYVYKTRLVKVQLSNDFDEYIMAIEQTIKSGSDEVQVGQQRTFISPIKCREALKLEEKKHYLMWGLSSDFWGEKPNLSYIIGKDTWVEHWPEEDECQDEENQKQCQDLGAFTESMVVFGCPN
# method.notes: cell-based or functional assay
Positions of bridges follow the written chain, without caps; N, C: chain ends. Non-standard residues stand in square brackets, D forms with d. Trp(1-Me) = Cn1cc(C[C@H](N)C(=O)O)c2ccccc21; Sar = CNCC(=O)O

>  <binder>
Ac-GEFCI[Trp(1-Me)]QDWGEHRC[Sar]EA-NH2 (disulfide 4-14; SMILES CC[C@H](C)[C@@H]1NC(=O)[C@@H](NC(=O)[C@H](Cc2ccccc2)NC(=O)[C@H](CCC(=O)O)NC(=O)CNC(C)=O)CSSC[C@@H](C(=O)N(C)CC(=O)N[C@@H](CCC(=O)O)C(=O)N[C@@H](C)C(N)=O)NC(=O)[C@H](CCCNC(=N)N)NC(=O)[C@H](Cc2c[nH]cn2)NC(=O)[C@H](CCC(=O)O)NC(=O)CNC(=O)[C@H](Cc2c[nH]c3ccccc23)NC(=O)[C@H](CC(=O)O)NC(=O)[C@H](CCC(N)=O)NC(=O)[C@H](Cc2cn(C)c3ccccc23)NC1=O) [Compound 87]

>  <IC50[nM], inhibition of hemolysis>
< 100 nM

$$$$
